Below: a set of entries, each annotated with reported IC50.
assay_system: JAK2 (Homo sapiens (Human), UniProt O60674)
Sequence (O60674 849-1124): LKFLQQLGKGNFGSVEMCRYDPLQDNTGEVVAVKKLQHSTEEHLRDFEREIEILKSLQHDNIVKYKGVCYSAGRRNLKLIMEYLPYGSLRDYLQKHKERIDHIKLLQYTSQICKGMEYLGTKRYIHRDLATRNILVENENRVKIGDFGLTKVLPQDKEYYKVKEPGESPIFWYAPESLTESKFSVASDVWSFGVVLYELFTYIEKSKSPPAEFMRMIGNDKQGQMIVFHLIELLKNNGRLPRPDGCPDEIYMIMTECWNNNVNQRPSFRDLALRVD
experimental_details: Jak Biochemical HTRF Assay, JAK2
test_conditions: HTRF biochemical assay, GST-tagged catalytic domain; top concentration tested […]

# example entries with known answers
molecule | IC50
N#CCC1(n2cc(C(N)=O)c(Nc3ccnc(F)c3)n2)CCC(NCc2ccccc2F)CC1 (centres unmarked) [Example 41-11] | 2 nM
N#CCC1(n2cc(C(N)=O)c(Nc3ccccc3)n2)CCN(C(=O)OCc2cccc(F)c2)CC1 | 88 nM
N#CCC1(n2cc(C(N)=O)c(Nc3ccccc3)n2)CCN(C(=O)OCc2ccncc2)CC1 | 58 nM
N#CCC1(n2cc(C(N)=O)c(Nc3ccnc(F)c3)n2)CCC(NCc2cccc(Cl)c2)CC1 (centres unmarked) [Example 41-20] | 17 nM

Prompt: Can you look up the measured IC50 of CN(c1ccccc1)C1CCC(CC#N)(n2cc(C(N)=O)c(Nc3ccnc(F)c3)n2)CC1 (centres unmarked) [Example 40-34] for me?
Completion: 105 nM

Prompt: Could you share which IC50 value was measured for CC(O)c1ccc(Nc2nn(C3(CC#N)CCN(C(=O)OC(C)(C)C)CC3)cc2C(N)=O)cn1 (centres unmarked) ?
Completion: 2 nM

Prompt: Please report the recorded IC50 for N#CCC1(n2cc(C(N)=O)c(Nc3ccnc(F)c3)n2)CCC(NC2CCCCC2)CC1 (centres unmarked) [Example 40-51] .
Completion: > 1500 nM

Prompt: Suppose we examine the molecule COc1ccc(C)cc1NC(=O)N1CC(CC#N)(n2cc(C(N)=O)c(Nc3ccccc3)n2)C1 ; what IC50 value has been reported?
Completion: 168 nM

Prompt: Quick one: IC50 for N#CCC1(n2cc(C(N)=O)c(Nc3ccc(F)cc3)n2)CCN(Cc2ccon2)CC1 ?
Completion: 34 nM

Prompt: Report IC50 for N#CCC1(n2cc(C(N)=O)c(Nc3ccc(F)cc3)n2)CCN(C(=O)OCC2CC2)CC1 please.
Completion: 37 nM

Prompt: So what does the record say about IC50 for N#CCC1(n2cc(C(N)=O)c(Nc3ccnc(F)c3)n2)CCN(Cc2cccc(F)c2)CC1 ?
Completion: 3 nM

Prompt: Name the reported IC50 value associated with the molecule N#CCC1(n2cc(C(N)=O)c(Nc3ccccc3)n2)CCOCC1
Completion: 133 nM

Prompt: Recorded IC50 for CS(=O)(=O)N1CC(CC#N)(n2cc(C(N)=O)c(Nc3ccccc3)n2)C1 , please?
Completion: 366 nM
